SYSTEM TESTED: UniProt:Q9UNA0
Sequence (Q9UNA0 262-930): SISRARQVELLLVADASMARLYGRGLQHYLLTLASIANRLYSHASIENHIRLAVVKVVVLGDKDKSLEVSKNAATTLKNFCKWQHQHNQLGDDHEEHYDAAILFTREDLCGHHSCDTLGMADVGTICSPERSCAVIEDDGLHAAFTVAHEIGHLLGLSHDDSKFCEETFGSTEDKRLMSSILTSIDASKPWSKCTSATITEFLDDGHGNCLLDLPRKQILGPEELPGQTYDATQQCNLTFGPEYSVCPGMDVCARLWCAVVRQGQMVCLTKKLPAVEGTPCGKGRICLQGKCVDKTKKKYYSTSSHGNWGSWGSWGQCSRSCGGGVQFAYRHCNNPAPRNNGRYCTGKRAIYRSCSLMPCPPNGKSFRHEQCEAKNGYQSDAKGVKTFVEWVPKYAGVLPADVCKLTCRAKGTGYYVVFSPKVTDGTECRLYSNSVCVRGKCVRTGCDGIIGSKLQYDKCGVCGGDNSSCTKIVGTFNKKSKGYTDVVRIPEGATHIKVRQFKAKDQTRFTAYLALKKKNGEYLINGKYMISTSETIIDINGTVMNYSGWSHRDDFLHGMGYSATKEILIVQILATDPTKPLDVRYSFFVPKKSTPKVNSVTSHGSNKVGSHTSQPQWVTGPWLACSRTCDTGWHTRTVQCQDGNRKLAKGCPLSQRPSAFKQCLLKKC
PROTOCOL CONDITIONS: read-out: hADAMTS-5 potency IC50
pIC50: −log10 of the molar value.
Give Yes when the value for pIC50 is at least 7. Give No when it is less.

Study these solved cases before continuing.
C[C@H]1CN(C(=O)CCC2(C3CC3)NC(=O)NC2=O)CCN1c1cccc(-c2cnn(C)c2)c1 (stereo partly shown) [compound 283] | No
C[C@H]1CN(C(=O)CCC2(c3cnccn3)NC(=O)NC2=O)CCN1c1cc(F)cc(F)c1 (stereo partly shown) [compound 327] | Yes
C[C@H]1CN(C(=O)CC[C@@]2(C3CC3)NC(=O)NC2=O)CCN1c1ccc(Cl)c(Cl)c1 [compound 207] | Yes

API: above_or_equal(metric=pIC50, cutoff=7) for item CNc1ccccc1N1CCN(C(=O)CCC2(C3CC3)NC(=O)NC2=O)CC1 (stereo not shown) [compound 185] No

Same lookup for Cc1ccc(C2(CCC(=O)N3CCN(c4ccc(F)c(Cl)c4)[C@@H](C)C3)NC(=O)NC2=O)cn1 (stereo partly shown) [compound 287] , please. Yes

Same lookup for CC(CC1(C)NC(=O)NC1=O)C(=O)N1CCN(c2cc(Cl)cc(Cl)c2)[C@@H](C)C1 (stereo partly shown) [compound 420] , please. Yes

Same lookup for COCC1(CC(C)C(=O)N2CCN(c3cc(Cl)cc(Cl)c3)CC2)NC(=O)NC1=O (stereo not shown) [compound 222] , please. Yes

Same lookup for C[C@@H](CC1(C2CC2)NC(=O)NC1=O)C(=O)N1CCN(c2cccc(-c3cn[nH]c3)c2)[C@@H](C)C1 (stereo partly shown) [compound 339] , please. Yes

Same lookup for CCC(CC1(C)NC(=O)NC1=O)C(=O)N1CCN(c2cc(Cl)cc(Cl)c2)CC1 (stereo not shown) [compound 435] , please. Yes

Same lookup for C[C@H]1CN(C(=O)CCC2(C3CC3)NC(=O)NC2=O)CCN1c1cccc2ccoc12 (stereo partly shown) [compound 280] , please. No

Same lookup for Cc1c(Cl)cccc1N1CCN(C(=O)C(C)CC2(C3CC3)NC(=O)NC2=O)CC1 (stereo not shown) [compound 176] , please. Yes

Same lookup for CC(CC1(C2CC2)NC(=O)NC1=O)C(=O)N1CCN(c2cccc(F)c2)[C@@H](C)C1 (stereo partly shown) [compound 190] , please. Yes

Same lookup for Cc1cc(N2CCN(C(=O)CC[C@@]3(C)NC(=O)NC3=O)C[C@@H]2C)cc(C)c1Cl [compound 400] , please. No

Same lookup for CC(CC1(C2CC2)NC(=O)NC1=O)C(=O)N1CCN(c2cccc(Cl)c2)CC1 (stereo not shown) [compound 121] , please. Yes

====

# IC50 listing for each entry below
SYSTEM TESTED: human MMP13 (Homo sapiens (Human), UniProt P45452)
PROTOCOL CONDITIONS: read-out: hMMP-13 potency IC50

Please review the following examples before continuing.
CC1(CCC(=O)N2CCN(c3cc(F)cc(Cl)c3)CC2)NC(=O)NC1=O (centres unmarked) | > 4 µM
Cc1ccccc1N1CCN(C(=O)CC[C@@]2(c3ccccc3)NC(=O)NC2=O)CC1 | > 20 µM

Param readout = IC50; param system = human MMP13 (Homo sapiens (Human), UniProt P45452); param query = C[C@H]1CN(C(=O)CC[C@@]2(C3CC3)NC(=O)NC2=O)CCN1c1ccc(Cl)c(Cl)c1 [compound 416] ; response: value 2.88 µM

Same lookup for CSCCC1(CC(C)C(=O)N2CCN(c3cc(Cl)cc(Cl)c3)CC2)NC(=O)NC1=O (centres unmarked) , please. > 4 µM

Same lookup for Cc1ccc(F)cc1N1CCN(C(=O)CCC2(c3ccccn3)NC(=O)NC2=O)CC1 (centres unmarked) , please. > 20 µM

Same lookup for Cc1ccc(Cl)cc1N1CCN(C(=O)CCC2(c3ccccn3)NC(=O)NC2=O)CC1 (centres unmarked) , please. > 20 µM

Same lookup for C[C@H]1CN(C(=O)CC[C@@]2(C)NC(=O)NC2=O)CCN1c1ccc(Cl)c(Cl)c1 , please. > 4 µM

Same lookup for CC(CC1(c2ccccn2)NC(=O)NC1=O)C(=O)N1CCN(c2cc(Cl)cc(Cl)c2)CC1 (centres unmarked) [compound 231] , please. 0.766 µM

Same lookup for CC1CN(C(=O)CCC2(c3cccnc3)NC(=O)NC2=O)CCN1c1cc(Cl)cc(Cl)c1 (centres unmarked) , please. > 20 µM

Same lookup for CC1(CCC(=O)N2CCN(c3cc(F)cc(F)c3)CC2)NC(=O)NC1=O (centres unmarked) , please. > 4 µM
